System: cancer cells
Experiment: MTT cytotoxic assay of esterification products (Cytotoxicity activity)
Format: cell-based, human
Conditions: E4A esterified with Acetyl chloride (Acy = Acetyl), compounds isolated with HPLC
Method: The peaks, fractions and compounds are selected according to the activities of times studies and the changes of peaks. Selecting the HPLC fractions for isolation is according to the cytotoxic activity of the reaction product obtained at a specific time. The compounds having strong to weak activities are selected and isolated. […] Method: 40 mg of triterpene core (fraction IV) was dissolved in 1 ml pyridine in a 50 ml tube. […] Structures are determined with NMR. […]
observed_property: Cytotoxicity activity

compound | observed_property | result
CC(=O)OC1C(OC(C)=O)C2(CO)C(OC(C)=O)CC3(C)C(=CCC4C5(C)CCC(O)C(C)(CO)C5CCC43C)C2CC1(C)C (centres unmarked) | Cytotoxicity activity | moderate
CC(=O)OCC12C(O)CC3(C)C(=CCC4C5(C)CCC(O)C(C)(CO)C5CCC43C)C1CC(C)(C)C(OC(C)=O)C2O (centres unmarked) | Cytotoxicity activity | moderate
CC(=O)OCC1(C)C(OC(C)=O)CCC2(C)C1CCC1(C)C2CC=C2C3CC(C)(C)C(O)C(O)C3(COC(C)=O)C(O)CC21C (centres unmarked) | Cytotoxicity activity | moderate
CC(=O)OCC1(C)C(O)CCC2(C)C1CCC1(C)C2CC=C2C3CC(C)(C)C(O)C(OC(C)=O)C3(COC(C)=O)C(OC(C)=O)CC21C (centres unmarked) | Cytotoxicity activity | weak
CC(=O)OCC1(C)C(O)CCC2(C)C1CCC1(C)C2CC=C2C3CC(C)(C)C(O)C(O)C3(CO)C(O)CC21C (centres unmarked) | Cytotoxicity activity | moderate

[Q] # Cytotoxicity activity lookup, item CC(=O)OCC1(C)C(OC(C)=O)CCC2(C)C1CCC1(C)C2CC=C2C3CC(C)(C)C(O)C(O)C3(COC(C)=O)C(OC(C)=O)CC21C (centres unmarked)
[A] weak

[Q] Field request: Cytotoxicity activity | item: CC(=O)OCC1(C)C(OC(C)=O)CCC2(C)C1CCC1(C)C2CC=C2C3CC(C)(C)C(OC(C)=O)C(OC(C)=O)C3(COC(C)=O)C(O)CC21C (centres unmarked)
[A] weak

[Q] Find the recorded Cytotoxicity activity belonging to CC(=O)OCC1(C)C(OC(C)=O)CCC2(C)C1CCC1(C)C2CC=C2C3CC(C)(C)C(OC(C)=O)C(O)C3(COC(C)=O)C(O)CC21C (centres unmarked) and report it.
[A] weak

[Q] Entry CC(=O)OCC12C(O)CC3(C)C(=CCC4C5(C)CCC(O)C(C)(CO)C5CCC43C)C1CC(C)(C)C(OC(C)=O)C2OC(C)=O (centres unmarked) has what Cytotoxicity activity?
[A] moderate

[Q] Consider the compound shown here: CC(=O)OCC1(C)C(O)CCC2(C)C1CCC1(C)C2CC=C2C3CC(C)(C)C(OC(C)=O)C(OC(C)=O)C3(CO)C(O)CC21C (centres unmarked) What is its recorded Cytotoxicity activity?
[A] moderate

[Q] Returns the measured Cytotoxicity activity for the input compound. Input: CC(=O)OCC1(C)C(O)CCC2(C)C1CCC1(C)C2CC=C2C3CC(C)(C)C(OC(C)=O)C(OC(C)=O)C3(COC(C)=O)C(O)CC21C (centres unmarked)
[A] weak

[Q] Form field: reported Cytotoxicity activity of CC(=O)OC1C(OC(C)=O)C2(CO)C(O)CC3(C)C(=CCC4C5(C)CCC(O)C(C)(CO)C5CCC43C)C2CC1(C)C (centres unmarked)
[A] moderate

The measured values listed here are drawn from patent US20230340012A1.
